- target: IRAK4 (Homo sapiens, UniProt Q9NWZ3)
- Construct: Degradation of IRAK4 in OCI-LY10 was quantitatively measured using Meso Scale Discovery technology; endogenous in cells; host or cells: OCI-LY10
- Sequence (Q9NWZ3 whole entry): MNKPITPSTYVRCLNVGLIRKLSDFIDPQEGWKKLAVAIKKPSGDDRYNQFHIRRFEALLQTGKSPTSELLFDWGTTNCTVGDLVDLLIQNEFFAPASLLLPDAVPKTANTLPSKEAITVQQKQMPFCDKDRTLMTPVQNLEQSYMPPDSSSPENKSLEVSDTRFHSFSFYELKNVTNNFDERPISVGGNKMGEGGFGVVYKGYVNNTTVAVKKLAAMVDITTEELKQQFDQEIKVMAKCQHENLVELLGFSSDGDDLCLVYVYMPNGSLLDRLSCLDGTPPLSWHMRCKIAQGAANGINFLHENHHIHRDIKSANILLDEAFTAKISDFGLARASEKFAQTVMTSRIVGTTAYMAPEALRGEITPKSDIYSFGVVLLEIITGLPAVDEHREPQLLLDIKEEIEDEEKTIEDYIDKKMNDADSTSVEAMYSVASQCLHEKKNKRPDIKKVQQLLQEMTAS
- test-method-notes: IRAK4 MSD Degradation in OCI-LY10
- Type: cell-based
- experimental-conditions: OCI-LY10 cells, 24 hrs incubation, MSD; read-out: IRAK4 degradation in OCI-LY10 at 24 hrs: DC50
readout-type: DC50

Sample records with DC50:
Enquiry: Given CN(C[C@H]1CC[C@H](n2cc(NC(=O)c3cnn4ccc(N5C6CCC5COC6)nc34)c(C(F)F)n2)CC1)C1CCN(c2cccc3c2n(C)c(=O)n3C2CCC(=O)NC2=O)CC1(F)F (stereo partly shown) [I-527] , respond with its DC50.
Return: 10 to 100 nM

Enquiry: Given CO[C@@H]1CN(c2cccc3c2n(C)c(=O)n3C2CCC(=O)NC2=O)CC[C@@H]1N(C)C[C@H]1CC[C@H](n2cc3cc(NC(=O)c4cccc(C(F)(F)F)n4)ccc3n2)CC1 (stereo partly shown) [I-497] , respond with its DC50.
Return: > 200 nM

Enquiry: Given Cn1c(=O)n(C2CCC(=O)NC2=O)c2cccc([C@H]3C[C@H](CO[C@@H]4CCN(C[C@H]5CC[C@H](n6cc(NC(=O)c7cnn8ccc(N9C[C@H]%10C[C@@H]9CO%10)nc78)c(C(F)F)n6)CC5)C[C@@H]4F)C3)c21 (stereo partly shown) [I-722] , respond with its DC50.
Return: < 10 nM

Enquiry: Given Cn1c(=O)n(C2CCC(=O)NC2=O)c2ccc(N3CC(CO[C@@H]4CCN(C[C@H]5CC[C@H](n6cc(NC(=O)c7cnn8ccc(N9C[C@H]%10C[C@@H]9CO%10)nc78)c(C(F)F)n6)CC5)C[C@H]4F)C3)c(F)c21 (stereo partly shown) [I-742] , respond with its DC50.
Return: < 10 nM

Enquiry: Given Cn1c(=O)n(C2CCC(=O)NC2=O)c2cccc(C#CCOC3CCN(C[C@H]4CC[C@H](n5cc(NC(=O)c6cnn7ccc(N8CC9(CCCOC9)C8)nc67)c(C(F)F)n5)CC4)CC3)c21 (stereo partly shown) [I-328] , respond with its DC50.
Return: > 200 nM

Enquiry: Given Cn1c(=O)n(C2CCC(=O)NC2=O)c2cccc(C#CCOC3CCN(C[C@H]4CC[C@H](n5cc(NC(=O)c6cnn7ccc(N8CC9(COC9)C8)nc67)c(C(F)F)n5)CC4)CC3)c21 (stereo partly shown) [I-325] , respond with its DC50.
Return: > 200 nM

Enquiry: Given Cn1c(=O)n(C2CCC(=O)NC2=O)c2cccc(C#CCO[C@@H]3CCCN(C[C@H]4CC[C@H](n5cc(NC(=O)c6cnn7ccc(N8C[C@H]9C[C@@H]8CO9)nc67)c(C(F)F)n5)CC4)C3)c21 (stereo partly shown) [I-127] , respond with its DC50.
Return: > 200 nM

Enquiry: Given Cn1c(=O)n(C2CCC(=O)NC2=O)c2cccc(C#CCN3CCN(C[C@H]4CC[C@H](n5cc(NC(=O)c6cnn7ccc(N8C[C@H]9C[C@@H]8CO9)nc67)c(F)n5)CC4)CC3)c21 (stereo partly shown) [I-281] , respond with its DC50.
Return: > 200 nM

Next:
Enquiry: Given COc1ccc2c(c1C#CCO[C@@H]1CCN(C[C@H]3CC[C@H](n4cc(NC(=O)c5cnn6ccc(N7C[C@H]8C[C@@H]7CO8)nc56)c(C(F)F)n4)CC3)C[C@H]1C)n(C)c(=O)n2C1CCC(=O)NC1=O (stereo partly shown) [I-64] , respond with its DC50.
Return: > 200 nM

Enquiry: Given Cn1c(=O)n(C2CCC(=O)NC2=O)c2cccc(C#CCN3CCN(C[C@H]4CC[C@H](n5cc(NC(=O)c6cnn7ccc(N8C[C@H]9C[C@@H]8CO9)nc67)c(Cl)n5)CC4)CC3)c21 (relative stereo) [I-117] , respond with its DC50.
Return: 10 to 100 nM

Enquiry: Given Cn1c(=O)n(C2CCC(=O)NC2=O)c2cccc(C3CN(C4CCN([C@H]5CC[C@H](n6cc(NC(=O)c7cnn8ccc(N9C[C@H]%10C[C@@H]9CO%10)nc78)c(C(F)F)n6)CC5)CC4(F)F)C3)c21 (single isomer, unassigned) [I-736] , respond with its DC50.
Return: < 10 nM

Enquiry: Given Cn1c(=O)n(C2CCC(=O)NC2=O)c2cccc(N3CCN(CC4CCC(n5cc(NC(=O)c6cnn7ccc(N8CC9C[C@@H]8CO9)nc67)c(C(F)F)n5)CC4)CC3)c21 (stereo partly shown) [I-189] , respond with its DC50.
Return: > 200 nM

Enquiry: Given Cc1cccc(C(=O)Nc2ccc3nn([C@H]4CC[C@H](CN5CC[C@@H](c6cccc7c6n(C)c(=O)n7C6CCC(=O)NC6=O)[C@H](F)C5)CC4)cc3c2)n1 (stereo partly shown) [I-727] , respond with its DC50.
Return: < 10 nM

Enquiry: Given Cc1cccc(C(=O)Nc2cc3cn([C@H]4CC[C@H](CN5CC[C@@H](c6cccc7c6n(C)c(=O)n7C6CCC(=O)NC6=O)[C@H](F)C5)CC4)nc3cn2)n1 (stereo partly shown) [I-633] , respond with its DC50.
Return: < 10 nM

Enquiry: Given Cn1c(=O)n(C2CCC(=O)NC2=O)c2cccc(N3CCN(C[C@]4(O)CC[C@@H](n5cc6cc(NC(=O)c7cccc(C(F)(F)F)n7)ncc6n5)CC4)CC3)c21 (stereo partly shown) [I-677] , respond with its DC50.
Return: < 10 nM

Enquiry: Given Cn1c(=O)n(C2CCC(=O)NC2=O)c2cccc(CC[C@H]3CN(Cc4ccc(-n5cc(NC(=O)c6cnn7cccnc67)c(C(F)F)n5)cc4)CCO3)c21 (stereo partly shown) [I-388] , respond with its DC50.
Return: > 200 nM

Enquiry: Given CO[C@H]1CN(c2cccc3c2n(C)c(=O)n3C2CCC(=O)NC2=O)C[C@@H]1N(C)C[C@H]1CC[C@H](n2cc3cc(NC(=O)c4cccc(C(F)(F)F)n4)ccc3n2)CC1 (stereo partly shown) [I-492] , respond with its DC50.
Return: > 200 nM

Enquiry: Given CN(C[C@H]1CC[C@H](n2cc(NC(=O)c3cnn4ccc(N5CCC(F)(F)CC5)nc34)c(C(F)F)n2)CC1)C1CCN(c2cccc3c2n(C)c(=O)n3C2CCC(=O)NC2=O)CC1 (stereo partly shown) [I-273] , respond with its DC50.
Return: < 10 nM

Enquiry: Given Cn1c(=O)n(C2CCC(=O)NC2=O)c2cccc(N3CCN(CC4CCN(C[C@H]5CC[C@H](n6cc(NC(=O)c7cnn8ccc(N9C[C@H]%10C[C@@H]9CO%10)nc78)c(C(F)F)n6)CC5)CC4)CC3)c21 (stereo partly shown) [I-163] , respond with its DC50.
Return: > 200 nM
